// values below are reported pIC50
Target: recombinant Trypanosome AOX (TAO) enzyme (Trypanosoma brucei brucei, UniProt Q26710)
Sequence (Q26710 whole entry): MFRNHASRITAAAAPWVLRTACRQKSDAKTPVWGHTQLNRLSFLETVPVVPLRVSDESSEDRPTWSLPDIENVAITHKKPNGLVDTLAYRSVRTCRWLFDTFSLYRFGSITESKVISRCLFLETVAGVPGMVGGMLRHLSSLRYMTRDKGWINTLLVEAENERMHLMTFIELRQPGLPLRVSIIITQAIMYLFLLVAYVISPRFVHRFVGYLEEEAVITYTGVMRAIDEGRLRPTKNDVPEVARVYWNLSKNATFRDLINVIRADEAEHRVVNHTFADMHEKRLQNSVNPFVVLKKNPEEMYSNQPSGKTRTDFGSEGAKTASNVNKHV
Test: TAO enzyme inhibition (quinol oxidase activity, ubiquinol-1 substrate)
Details: TAO-expressing E. coli membrane fraction, 25° C., ubiquinol-1, absorbance at 278 nm
Quick note: pIC50 means taking -log10 of the concentration in moles per liter.

Below, 2 compounds whose answers are already recorded.
COMPOUND	SYSTEM_UNDER_TEST	pIC50
Cc1c(Cl)c(O)c(CCCCCCCCCC(=O)OC(C)C)c(O)c1C=O	recombinant Trypanosome AOX (TAO) enzyme (Trypanosoma brucei brucei, UniProt Q26710)	9.37
COC(C)(C)CCC/C(C)=C/Cc1c(O)c(Cl)c(C)c(C=O)c1O	recombinant Trypanosome AOX (TAO) enzyme (Trypanosoma brucei brucei, UniProt Q26710)	9.54

Query string: Given C/C(=C\Cc1c(O)c(Cl)c(C)c(C=O)c1O)CC/C=C/COC(=O)C(C)(C)C , state its recorded pIC50.
Result string: 9.70

Query string: Given Cc1c(Cl)c(O)c(CCCCCCCC2CC(=O)C(C)(C)O2)c(O)c1C=O (centres unmarked) , state its recorded pIC50.
Result string: 9.30

Query string: Given CCOC(=O)CCCCCCCCCCCc1c(O)c(Cl)c(C)c(C=O)c1O , state its recorded pIC50.
Result string: 9.52

Query string: Given CCC(=O)OCCCCCCCCCc1c(O)c(Cl)c(C)c(C=O)c1O , state its recorded pIC50.
Result string: 9.70

Query string: Given Cc1c(Cl)c(O)c(CCCCCCCOC(=O)C(C)(C)C)c(O)c1C=O , state its recorded pIC50.
Result string: 9.60

Query string: Given Cc1c(Cl)c(O)c(/C=C/CCCCCOC(=O)C(C)(C)C)c(O)c1C=O , state its recorded pIC50.
Result string: 9.28

Query string: Given Cc1c(Cl)c(O)c(CCCCCCCOC(=O)C(C)(C)C)c(O)c1C#N , state its recorded pIC50.
Result string: 8.22

Query string: Given Cc1c(Cl)c(O)c(CCCCCCCCCC(=O)OCC2COC(C)(C)O2)c(O)c1C=O (centres unmarked) , state its recorded pIC50.
Result string: 9.52

Query string: Given C/C(=C\COC(=O)C(C)C)CC/C(C)=C/Cc1c(O)c(Cl)c(C)c(C=O)c1O , state its recorded pIC50.
Result string: 9.59

Query string: Given C/C(C=O)=C\CC/C(C)=C/Cc1c(O)c(Cl)c(C)c(C=O)c1O , state its recorded pIC50.
Result string: 9.52

Query string: Given C/C(=C\Cc1c(O)c(Cl)c(C)c(C=O)c1O)CCCCOC(=O)C(C)(C)C , state its recorded pIC50.
Result string: 9.66

Query string: Given CC(=O)c1c(C)c(Cl)c(O)c(C/C=C(\C)CC/C=C(\C)COC(=O)C(C)(C)C)c1O , state its recorded pIC50.
Result string: 9.15

Query string: Given Cc1c(Cl)c(O)c(CCCCCCCC(=O)Oc2c3ccccc3cc3ccccc23)c(O)c1C=O , state its recorded pIC50.
Result string: 9.30

Query string: Given CC(=O)OCCCCCCCCc1c(O)c(Cl)c(C)c(C=O)c1O , state its recorded pIC50.
Result string: 9.22

Query string: Given Cc1c(Cl)c(O)c(CCCCCCCCCCCC(=O)OC(C)C)c(O)c1C=O , state its recorded pIC50.
Result string: 9.49

Query string: Given CC(C)=CCC/C=C/Cc1c(O)c(Cl)c(C)c(C=O)c1O , state its recorded pIC50.
Result string: 9.60

Query string: Given CC(=O)c1c(C)c(Cl)c(O)c(C/C=C(\C)CC/C=C(\C)CCC=C(C)C)c1O , state its recorded pIC50.
Result string: 9.82

Query string: Given C/C(=C\CC/C(C)=C/Cc1c(O)c(Cl)c(C)c(C=O)c1O)CO , state its recorded pIC50.
Result string: 9.52
